# STUDY_TARGET: UniProt:P11802
# Sequence (P11802 whole entry): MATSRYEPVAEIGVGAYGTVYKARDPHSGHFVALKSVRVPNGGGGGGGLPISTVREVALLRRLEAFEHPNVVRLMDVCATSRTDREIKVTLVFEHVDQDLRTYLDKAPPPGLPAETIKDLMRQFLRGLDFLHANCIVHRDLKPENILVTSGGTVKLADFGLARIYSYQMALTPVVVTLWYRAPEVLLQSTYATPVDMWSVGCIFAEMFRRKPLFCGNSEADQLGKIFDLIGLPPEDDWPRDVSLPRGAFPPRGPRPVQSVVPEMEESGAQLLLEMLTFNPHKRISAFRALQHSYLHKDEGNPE
# Sequence (P24385 whole entry partner): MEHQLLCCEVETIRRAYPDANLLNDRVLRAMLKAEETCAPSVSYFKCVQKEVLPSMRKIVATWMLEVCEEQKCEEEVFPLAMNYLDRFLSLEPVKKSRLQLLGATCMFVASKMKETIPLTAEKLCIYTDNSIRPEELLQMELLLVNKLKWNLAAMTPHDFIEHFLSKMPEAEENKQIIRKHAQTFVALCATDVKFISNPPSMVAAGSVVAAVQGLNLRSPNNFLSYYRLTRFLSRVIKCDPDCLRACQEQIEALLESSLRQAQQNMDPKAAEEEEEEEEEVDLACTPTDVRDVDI
Catalogue of IC50 readings, one per entry.

INSERT INTO results (compound, reported) VALUES
  ('CC(C)(C)c1cnc(CSc2cnc(NC(=O)CCCCCCC(=O)Nc3ccccc3N)s2)o1 [Compound 18]', '100 to 1000 nM');

Field: IC50 (UniProt:P11802). Entry: CC(C)N(O)C(=O)CCCCCCC(=O)Nc1ncc(SCc2ncc(C(C)(C)C)o2)s1 [Compound 5]
100 to 1000 nM

* * *

# STUDY_TARGET: CDK1 (Homo sapiens, UniProt P06493)
# Sequence (P06493 whole entry): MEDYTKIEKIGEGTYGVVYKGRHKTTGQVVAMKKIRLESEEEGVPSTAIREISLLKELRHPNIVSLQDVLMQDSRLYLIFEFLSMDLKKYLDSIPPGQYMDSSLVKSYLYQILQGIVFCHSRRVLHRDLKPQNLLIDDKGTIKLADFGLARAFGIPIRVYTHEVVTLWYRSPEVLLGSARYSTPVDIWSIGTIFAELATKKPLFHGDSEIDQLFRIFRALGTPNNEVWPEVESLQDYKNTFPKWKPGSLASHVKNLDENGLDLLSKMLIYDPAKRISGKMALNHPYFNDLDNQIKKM
# Sequence (P14635 whole entry partner): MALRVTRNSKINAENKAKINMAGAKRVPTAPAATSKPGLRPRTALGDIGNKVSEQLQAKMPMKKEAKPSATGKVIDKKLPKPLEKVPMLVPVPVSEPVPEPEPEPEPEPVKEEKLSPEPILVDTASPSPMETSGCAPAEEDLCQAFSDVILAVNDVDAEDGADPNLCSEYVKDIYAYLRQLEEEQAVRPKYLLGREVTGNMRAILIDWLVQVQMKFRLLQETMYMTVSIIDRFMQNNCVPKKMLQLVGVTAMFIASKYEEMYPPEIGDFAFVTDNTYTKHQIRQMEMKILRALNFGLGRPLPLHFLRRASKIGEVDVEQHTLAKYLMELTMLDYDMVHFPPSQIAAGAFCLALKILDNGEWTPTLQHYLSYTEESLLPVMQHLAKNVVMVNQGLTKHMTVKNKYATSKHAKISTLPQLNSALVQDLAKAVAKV
pIC50: −log10 of the molar value.
MEASURED_QUANTITY: pIC50

Field: pIC50 (CDK1 (Homo sapiens, UniProt P06493)). Entry: CC(C)N(O)C(=O)CCCCCCC(=O)Nc1ncc(SCc2ncc(C(C)(C)C)o2)s1
≥ 7.00
